# assay_info: NCI Yeast Anticancer Drug Screen. Data for the sgs1 mgt1 strain (AID 161);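 note: 0% = growth of cultures given vehicle only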
# details: S. cerevisiae sgs1 mgt1 strain, at 50.0 µM (retest, dose inferred, filed as 5.0), hits give high values
The panel holds about 79,000 compounds, 15% with a hit somewhere; the sample as a whole holds those more often.
Everything with growth inhibition lower than 50% is Condition not met; everything else, including exactly 50%, is Condition met.

| molecule | cat |
| --- | --- |
| Cc1ccc(-c2c(C#N)c(-c3ccc(Cl)cc3)c(C#N)c(=O)n2NS(=O)(=O)c2ccccc2)cc1 | Condition met |
| COc1cc[c]([Sn]([c]2ccc(OC)cc2)([c]2ccc(OC)cc2)[c]2ccc(OC)cc2)cc1 | Condition not met |
| N#CC(/C=C/c1ccccc1)(NO)Nc1cccc(Cl)c1 (stereo unspecified) | Condition met |
| CC(C)(C)N1OC2(c3ccccc3)OC3N(C(C)(C)C)OC4(c5ccccc5)OC1C2(c1ccccc1)C34c1ccccc1 (stereo unspecified) | Condition met |
| Nc1ccc(C(=O)Oc2cccccc2=O)cc1 | Condition met |
| O=Nc1c(NO)c2ccccc2c2ccccc12 | Condition met |
| CCc1cc2c(c3[nH]ccc13)[C@@H](C)C[C@H]2C | Condition met |
| O=[N+]([O-])c1ccccc1NCCO | Condition not met |
| COc1c(O)ccc2c1CN1CCc3cc4c(cc3C1C2)OCO4 (stereo unspecified) | Condition met |
| Cc1cnc2cccc(Cl)c2c1Cl | Condition not met |
| CC(=O)Oc1c(C)cc([N+](=O)[O-])cc1[N+](=O)[O-] | Condition met |

###

# assay_info: NCI Yeast Anticancer Drug Screen. Data for the sgs1 mgt1 strain (AID 161);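 note: 0% = growth of cultures given vehicle only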
# details: S. cerevisiae sgs1 mgt1 strain, at 5.0 µM (retest, dose inferred, filed as 0.5)
Compounds without any hit were thinned out: in the full panel of roughly 79,000, 15% have a hit. Calls of active or inactive are those of the source. Rule as the data show it: active = growth inhibition above about 70%; inactive = the rest.
Possible outcomes: active, inactive

| compound | cat |
| --- | --- |
| Cc1ccccc1C(CC(=O)O)C(C)c1ccccc1 (stereo unspecified) | inactive |
| CC1(C)CCC(C)(C)c2cc(C(=O)Nc3ccc(C(=O)O)cc3)ccc21 | inactive |
| COC(=O)/C=C1/OC(c2ccccc2)=C(C)C1=O | inactive |
| Cc1cccc(-c2csc(N)n2)c1 | inactive |
| C\C=C/C=C/C=C/C(=O)O | inactive |
| C=C1C(=O)OC2C(C)C3C=CC(=O)[C@@]3(C)C(OC(=O)/C(C)=C/C)C1[C@@H]2OC(C)=O (stereo partly specified) | inactive |
| CC(=O)Oc1ccc2cc(-c3ccccc3OC(C)=O)c(=O)oc2c1 | inactive |
| O=C(O)/C(Cl)=C(\Cl)C(=O)Nc1c(Cl)cccc1Cl | inactive |
| C(=C\[P+](c1ccccc1)(c1ccccc1)c1ccccc1)/c1ccccc1 | active |
| CN1CC[C@@H](c2ccccc2)[C@@H](O)C1 | inactive |
| CC1=CC(c2c(O)cc(O)c(C(=O)CCc3ccccc3)c2O)C(C(C)C)CC1 (stereo unspecified) | inactive |

###

Listed here are compounds together with their documented growth inhibition.
# assay_info: NCI Yeast Anticancer Drug Screen. Data for the mlh1 rad18 strain (AID 175)
# details: S. cerevisiae mlh1 rad18 strain growth inhibition; at 50.0 µM (retest, dose inferred, filed as 5.0); hits give high values
# Description: Growth inhibition of yeast strains with defined genetic alterations is measured as a screen for potential anti-cancer activity. Selected strains with alterations in DNA damage repair or cell cycle control were exposed to compounds and growth inhibition was measured relative to vehicle treated controls. The strain used in this assay is mlh1 rad18
This is part of a sample that, as a whole, favours compounds with a hit. Of some 79,000 tested, about 15% had one in any assay.

| compound | growth inhibition, % |
| --- | --- |
| COc1ccc(Cc2ccc3c(C)cc(Cl)nc3c2)cc1 | 93 |
| Clc1sc2ccccc2c1Cl | -2 |
| O=c1[nH]c(C(F)(F)F)c(F)c(=O)[nH]1 | -3 |
| C=C(C)/C([O-])=N/[N+](C)(C)CC(O)CCCCCCCCCCCC (configuration not stated) | 98 |
| O=C1/C(=C/c2cccc(F)c2)CCCc2ccccc21 | 75 |
| COc1ccc(-c2c3c(cc4cc5c(cc24)OCO5)C(=O)OC3)cc1OC | 96 |
| CCCc1nc2c(nc1C)C(=O)C=CC2=O | 96 |
| c1ccc(CN2CCC3(CC2)SSC2(CCN(Cc4ccccc4)CC2)S3)cc1 | 32 |
| Cc1ccc(NC(=O)CCCC(=O)C(C#N)c2ccccc2C)cc1C (configuration not stated) | -4 |
| CCCCCCCCCCCCNC(=O)C[n+]1ccc(C(N)=O)cc1 | 92 |
| COc1ccc(NS(=O)(=O)c2ccc(F)cc2)cc1 | -18 |
| CNC1c2ccccc2C(=O)c2cc3c(cc21)OCCOCCOCCOCCO3 (configuration not stated) | 1 |

###

# assay_info: NCI Yeast Anticancer Drug Screen. Data for the bub3 strain (AID 167)
# details: S. cerevisiae bub3 mutant strain, at 50.0 µM (retest, dose inferred, filed as 5.0), hits give high values
The panel holds about 79,000 compounds, 15% with a hit somewhere; the sample as a whole holds those more often.

| compound | growth inhibition (%) |
| --- | --- |
| c1csc(CNCc2cccs2)c1 | -5 |
| COC(=O)/C(=C/c1ccc(/C=C(/C(=O)O)c2ccc(OC)cc2)o1)c1ccccc1 | 99 |
| CC1(C)OC2COC3(CNO)OC(C)(C)OC3C2O1 (configuration not stated) | 5 |
| CNC(C)C(=O)c1ccc2ccc3ccccc3c2c1 (configuration not stated) | 24 |
| CCCCCCCCCCCC[n+]1cc2ccccc2cc1C | 99 |
| COC(=O)CNC(=O)C(F)(F)F | -73 |
| NNc1ccccc1[N+](=O)[O-] | 98 |

###

# assay_info: NCI Yeast Anticancer Drug Screen. Data for the sgs1 mgt1 strain (AID 161);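 note: 0% = growth of cultures given vehicle only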
# details: S. cerevisiae sgs1 mgt1 strain, at 50.0 µM (retest, dose inferred, filed as 5.0), hits give high values
About 79,000 compounds went through this panel and 15% of them were active in at least one assay; those are over-represented in the sample as a whole.

| compound | result_units | growth inhibition |
| --- | --- | --- |
| COc1ccc(NC2Oc3cc4c(cc3C(c3cccc(OC)c3OC)C2C)OCO4)cc1 (stereo not drawn) | % | -1 |
| CC1(C)c2ccccc2-c2nc3ccccc3cc2C1Br (stereo not drawn) | % | 23 |
| CCOC(=O)/C(=C\c1cccc(Br)c1)C(C)=O | % | 99 |
| O=C(CC(C[N+](=O)[O-])c1ccc2c(c1)OCO2)c1ccccc1 (stereo not drawn) | % | -50 |
| CCCCCN(CCCCC)CC(O)c1cccc2cc(Cl)ccc12 (stereo not drawn) | % | 99 |
| NNc1c(F)c(F)c(-c2c(F)c(F)c(NN)c(F)c2F)c(F)c1F | % | 98 |
| COc1cc(/C=N/NC(=S)Nc2ccccc2)ccc1O | % | 82 |
| CC(C)NC(=O)OCCN=C1c2ccccc2CCc2ccccc21 | % | 89 |
| Cc1cc(Br)ccc1NC(=O)/C=C/C(=O)O | % | -4 |
| Clc1ccc(SSc2ccc(Cl)cn2)nc1 | % | 96 |
| COc1ccc(CN2COc3c(cc(Cl)c4cccnc34)C2)cc1 | % | 98 |
| CC(C)n1nnc2c3ccccc3c3ccccc3c21 | % | 6 |
| CCCCCCCCCCCOc1cccc(N2C(N)=NC(N)=NC2(C)C)c1 | % | 96 |
| COc1ccc(/C=N/NS(=O)(=O)c2ccc(C)cc2)cc1 | % | 98 |
| Fc1ccc(NC(=S)SCc2ccccc2)cc1 | % | 19 |
| C=CCOc1cc(NC(=S)c2sccc2C)ccc1Cl | % | 88 |
| O=C1/C(=C/c2cccc(O)c2)SC(=S)N1/C=C\c1nc2ccccc2[nH]c1=O | % | 1 |
| CN(/N=C/c1ccc([N+](=O)[O-])o1)C(N)=O | % | 57 |
| Cc1ccc(NC(=S)SCc2ccc(Cl)cc2)cc1C | % | 94 |
| CC12CCC(=O)C=C1CCC1C2C(O)CC2(C)C(c3csc(N)n3)CCC12 (stereo not drawn) | % | 97 |
| CCOC(=O)C1=C(N)N(S(=O)(=O)c2ccc(C)cc2)CCC(C(=O)OC)=C1 | % | -1 |
| C1=C(c2ccccc2)C(=Nc2ccccc2)SC1=Nc1ccccc1 | % | 99 |
| CCCCCOC(=S)SSSC(=S)OCCCCC | % | 97 |
| N#CS/C=C/SC#N | % | 99 |
| CSC(SC)C(SC)SC | % | 99 |
| CNC1c2ccccc2C(=O)c2cc3c(cc21)OCCOCCOCCOCCO3 (stereo not drawn) | % | -12 |
| Cn1c(=O)c2c(ncn2CCCCOc2ccc3c(c2)[n+]([O-])nc(N)[n+]3[O-])n(C)c1=O | % | 34 |
| CC(C)(C)[Si](C)(C)OCC1OC(n2cnc3c(NC(=O)c4ccccc4)ncnc32)CC1O (stereo not drawn) | % | 6 |
| CN1CCN(CCCCN2c3ccccc3Sc3ccc(C(=O)c4ccccc4)cc32)CC1 | % | 2 |
| O=S1(=O)C(C(O)(c2ccccc2)c2ccccc2)CCCN1c1ccccc1 (stereo not drawn) | % | 16 |
| CC1C(=O)C(C)C(c2ccccc2)N(C)C1c1ccccc1 (stereo not drawn) | % | 98 |
| NC(=O)SCC(=O)Nc1ccccc1 | % | 82 |
| COc1cc(Br)c(CC(NC=O)c2ccc3c(c2)OCO3)cc1OC (stereo not drawn) | % | 95 |
| O=C1CN(Cc2ccc(Cl)cc2)CC(=O)N2Cc3ccccc3CN12 | % | -13 |
| Cc1ccc(N2CC3CC4(C)C=CC3(C2)O4)cc1 (stereo not drawn) | % | 22 |
| Cc1cc(=O)[nH]c(NN2C(Cl)C(=O)C2c2ccc(O)cc2)n1 (stereo not drawn) | % | 68 |
| c1ccc2nc(C[n+]3cccc4ccccc43)ccc2c1 | % | 97 |
| Cc1cc(C)c(O)c(C(C)(C)C)c1 | % | 0 |
| CCCCCCCCCCCCCCN1CCSCC1 | % | 1 |
| COC(=O)C1(COCc2ccccc2)CCCC2OC21 (stereo not drawn) | % | -2 |
| CC(C)(C)C(NO)C(O)N1CCCCC1 (stereo not drawn) | % | -63 |
| COC(=O)[C@]1(C)CCC[C@]2(C)c3ccc(C(C)C)cc3C(=O)C[C@@H]12 | % | 93 |
| CCN(CC)CCNC(=O)c1ccc2c(c1O)C(=O)c1ccccc1C2=O | % | 40 |
| Nc1ccccc1O | % | 40 |
| O=C(Nc1ccc(S(=O)(=O)NC2CCCCC2)cc1)OC1CCCCCCC1 | % | 40 |
| O=C(O)Cc1c[nH]c2ccccc12 | % | -2 |
| NC(=O)N/N=C(/Cc1nc2ccccc2nc1C/C(=N/NC(N)=O)c1cccc2ccccc12)c1cccc2ccccc12 | % | 17 |
| COc1ccc2c(c1)sc(/C=C/c1ccc(O)c3ncccc13)[n+]2C | % | 94 |

meta.source: PubChem BioAssay (NCI)
